TARGET_ENTITY: T1, recombinant human pro-sPLA2-GIB (pro form of group IB pancreatic phospholipase A2) (human, UniProt P04054 16-148)
T1 construct: also called pro-sPLA2-IB; proPLA2-GIB
TEST_METHOD_NOTES: competition ELISA on coated pro-sPLA2-IB; competitor biotinylated 1C11
PARAMETER_MEASURED: percentage of signal (%)
Numeric only. Scale: %

### Prompt Item #14G9 (antibody, IgG1, V domains shown, also called monoclonal antibody 14G9; #14G9 mAb) VH: QVQLQQPGAELVKPGASVKLSCKASGYTFTNYWIHWVKRRPGQGLEWIGNIDPSDTRTHYNQKFKDKATLAVDKSSSTAYMQLSSLTSEDSAVFYCARQTLYYEALDYWGQGTTLTVSS VL: DIVMTQSHKLMSTSVGDRVSITCKASQDVSTAVAWYQEKPGQSPKLLIYWASTRHTGVPNRFTGSRSGTDYTLTISSVQAEDLALYYCQQDYSTPPTFGAGTKLELKR : provide percentage of signal
### Response 69
